- PROCEDURE_TEXT: Kinetic solubility in pH 6.5 phosphate buffer by nephelometry
- Type: physicochemical
- MEASUREMENT_CONDITIONS: read-out: Kinetic_solubility
MEASURE_NAME: solubility kinetic (µg/mL)
API: value field is a number in µg/mL; no unit string.

A selection of reference data follows.
{"MOLECULE": "CCC(C)NC(=O)c1nc(-c2ccc(F)cc2)cnc1N (stereo not drawn)", "DISPLAY_UNIT": "µg/mL", "solubility kinetic": 50}
{"MOLECULE": "CCC(CC)NC(=O)c1nc(-c2cccc(C)c2)cnc1N", "DISPLAY_UNIT": "µg/mL", "solubility kinetic": 1.6}
{"MOLECULE": "CCC(CC)NC(=O)c1nc(-c2ccc(F)cc2C#N)cnc1N", "DISPLAY_UNIT": "µg/mL", "solubility kinetic": 1.6}

Identify solubility kinetic associated with the molecule CCC(C)NC(=O)c1nc(-c2ccc(Cl)cc2)cnc1N (stereo not drawn)
1.6

Identify solubility kinetic associated with the molecule Nc1ncc(-c2ccccc2)nc1C(=O)NC1CCCC1
25

Identify solubility kinetic associated with the molecule CCC(CC)NC(=O)c1nc(-c2ccc(F)cc2)cnc1N
3.1

Identify solubility kinetic associated with the molecule CCC(CC)NC(=O)c1nc(-c2ccccc2)cnc1N
3.1

---

- PROCEDURE_TEXT: Drug stability in human liver microsomes assessed as parent compound loss after 60 mins at 10 uM absence of NADPH regenerating system and UDPGA by LC-MS method
- Format: ADME
- MEASUREMENT_CONDITIONS: read-out: Drug degradation
MEASURE_NAME: metabolised at 1 h, 10 µM (%)
API: value field is a number in %; no unit string.

Identify metabolised at 1 h, 10 µM associated with the compound Cc1cccc(-c2cnc(N)c(C(=O)NC3CCCC3)n2)c1
6

---

- PROCEDURE_TEXT: Selectivity index, ratio of cytotoxic IC50 for HEK293 cells to EC50 for anti-parasitic activity against Trypanosoma brucei brucei 427 bloodstream parasites
- Type: toxicity, cell-based
- MEASUREMENT_CONDITIONS: human, read-out: Ratio IC50/EC50
Mark each entry criterion met if its selectivity ratio sits below 200, and criterion not met for all others.

Here's what some known entries look like.
{"COMPOUND": "CCC(C)NC(=O)c1nc(-c2ccc(Br)cc2)cnc1N (configuration not stated)", "ASSIGNED_CATEGORY": "criterion met"}
{"COMPOUND": "CCC(C)NC(=O)c1nc(-c2cccc([N+](=O)[O-])c2)cnc1N (configuration not stated)", "ASSIGNED_CATEGORY": "criterion met"}

Here's the next entry for you.
Lab log: compare recorded selectivity ratio with 200; is it strictly lower for Cc1cc(Cl)cc(-c2cnc(N)c(C(=O)NC3CCCC3)n2)c1 ?
criterion met

---

The entries below are paired with their reported Kp at 5 min.
- PROCEDURE_TEXT: Ratio of drug concentration in brain to plasma of Swiss mouse at normalized dose of 1 mg/kg, iv after 5 mins by LC-MS method
- Type: ADME, organism-based
- MEASUREMENT_CONDITIONS: read-out: BPR
// response body must contain only the number

{"MOLECULE": "Nc1ncc(-c2ccccc2)nc1C(=O)NC1CCCC1", "OBSERVED_MEASUREMENT": 5.7}

Consider now this further molecule.
Identify Kp at 5 min associated with the molecule CCC(C)NC(=O)c1nc(-c2ccc(F)cc2)cnc1N (configuration not stated)
5.1
